Assay: log P by HPLC on reversed-phase columns (C 18), EEC directive 79/831 Annex V.A8
Type: physicochemical
Details: method [b]
assay-endpoint: logP[b]

INSERT INTO assay_data (compound, value_measured) VALUES
  ('Cc1cc(F)c(-n2c(C)nc3scnc3c2=O)cc1SCC(F)(F)F', 2.70),
  ('N#Cc1cc(F)c(-n2cnc3sccc3c2=O)cc1SCC(F)(F)F', 2.67),
  ('O=c1c2scnc2ncn1-c1cc([S+]([O-])CC(F)(F)F)c(Cl)cc1Cl (stereo not shown)', 1.98),
  ('Cc1nn(C)c2ncn(-c3ccc(Cl)c(SCC(F)(F)F)c3)c(=O)c12', 2.79),
  ('O=c1c2scnc2ncn1-c1cc(SCC(F)(F)F)c(Cl)cc1Cl', 2.76),
  ('Cc1cc(F)c(-n2cnc3c(Cl)c(Cl)sc3c2=O)cc1[S+]([O-])CC(F)(F)F (stereo not shown)', 3.13),
  ('Cc1nn(C)c2ncn(-c3ccc(C#N)c(SCC(F)(F)F)c3)c(=O)c12', 2.24);
